System: STZ-induced diabetic rats
Experiment: Body weight and daily food intake of STZ-induced diabetic rats
Format: in vivo, rat
Conditions: compounds 100 mg/kg, glibenclamide 10 mg/kg, oral
MEASURE_NAME: daily food intake vs untreated diabetic rats

# COMPOUND, TEST_RESULT
records = [
    ("C[C@H]1[C@H](C)CC[C@]2(C(=O)O)CC[C@]3(C)C(=CC[C@@H]4[C@@]5(C)CC[C@H](O)C(C)(C)[C@@H]5CC[C@]43C)[C@H]12", "no obvious decrease"),
    ("CC(C)C(=O)O[C@H]1CC[C@@]2(C)C(CC[C@]3(C)C2CC=C2C4[C@@H](C)[C@H](C)CC[C@]4(C(=O)O)CC[C@]23C)C1(C)C (some centres unmarked)", "no obvious decrease"),
]

---

molecules and their reported Fasting Blood Glucose Level, Week 0
Tested on: STZ-induced diabetic rats
Assay: Fasting blood glucose in STZ-induced diabetic rats, 4 weeks treatment
Type: in vivo, rat
Settings: STZ diabetic rats, Week 0 (before treatment); compounds 100 mg/kg, glibenclamide 10 mg/kg; n = 6
MEASURE_NAME: Fasting Blood Glucose Level, Week 0

# MOLECULE, ASSAYED_SYSTEM, MEASURE_NAME, TEST_RESULT
data = [
    ("CCCC(=O)O[C@H]1CC[C@@]2(C)C(CC[C@]3(C)C2CC=C2C4[C@@H](C)[C@H](C)CC[C@]4(C(=O)O)CC[C@]23C)C1(C)C (some centres unmarked) [Compound 11]", "STZ-induced diabetic rats", "Fasting Blood Glucose Level, Week 0", "318.60 ± 17.64 mg/dL"),
    ("CCC(=O)O[C@H]1CC[C@@]2(C)C(CC[C@]3(C)C2CC=C2C4[C@@H](C)[C@H](C)CC[C@]4(C(=O)O)CC[C@]23C)C1(C)C (some centres unmarked) [Compound 10]", "STZ-induced diabetic rats", "Fasting Blood Glucose Level, Week 0", "320.40 ± 12.96 mg/dL"),
    ("CC(C)C(=O)O[C@H]1CC[C@@]2(C)C(CC[C@]3(C)C2CC=C2C4[C@@H](C)[C@H](C)CC[C@]4(C(=O)O)CC[C@]23C)C1(C)C (some centres unmarked) [Compound 12]", "STZ-induced diabetic rats", "Fasting Blood Glucose Level, Week 0", "325.80 ± 14.58 mg/dL"),
    ("COc1ccc(Cl)cc1C(=O)NCCc1ccc(S(=O)(=O)NC(=O)NC2CCCCC2)cc1 [Glibenclamide, reference compound]", "STZ-induced diabetic rats", "Fasting Blood Glucose Level, Week 0", "338.40 ± 16.38 mg/dL"),
    ("C[C@H]1[C@H](C)CC[C@]2(C(=O)O)CC[C@]3(C)C(=CC[C@@H]4[C@@]5(C)CC[C@H](O)C(C)(C)[C@@H]5CC[C@]43C)[C@H]12 [Compound 1, Ursolic acid]", "STZ-induced diabetic rats", "Fasting Blood Glucose Level, Week 0", "342.00 ± 19.08 mg/dL"),
]

---

# Fasting Blood Glucose Level, Week 2 per entry
Tested on: STZ-induced diabetic rats
Test: Fasting blood glucose in STZ-induced diabetic rats, 4 weeks treatment
Type: in vivo, rat
Settings: STZ diabetic rats, Week 2; compounds 100 mg/kg, glibenclamide 10 mg/kg daily; n = 6

# COMPOUND, Fasting Blood Glucose Level, Week 2 (mg/dL)
records = [
    ("C[C@H]1[C@H](C)CC[C@]2(C(=O)O)CC[C@]3(C)C(=CC[C@@H]4[C@@]5(C)CC[C@H](O)C(C)(C)[C@@H]5CC[C@]43C)[C@H]12", 392.40),
    ("COc1ccc(Cl)cc1C(=O)NCCc1ccc(S(=O)(=O)NC(=O)NC2CCCCC2)cc1 [Glibenclamide, reference compound]", 183.60),
    ("CCCC(=O)O[C@H]1CC[C@@]2(C)C(CC[C@]3(C)C2CC=C2C4[C@@H](C)[C@H](C)CC[C@]4(C(=O)O)CC[C@]23C)C1(C)C (some centres unmarked)", 352.80),
    ("CC(C)C(=O)O[C@H]1CC[C@@]2(C)C(CC[C@]3(C)C2CC=C2C4[C@@H](C)[C@H](C)CC[C@]4(C(=O)O)CC[C@]23C)C1(C)C (some centres unmarked)", 379.80),
    ("CCC(=O)O[C@H]1CC[C@@]2(C)C(CC[C@]3(C)C2CC=C2C4[C@@H](C)[C@H](C)CC[C@]4(C(=O)O)CC[C@]23C)C1(C)C (some centres unmarked)", 286.20),
]

---

// reported Fasting Blood Glucose Level, Week 4 per item
Tested on: STZ-induced diabetic rats
Test: Fasting blood glucose in STZ-induced diabetic rats, 4 weeks treatment
Assay type: in vivo, rat
Conditions: STZ diabetic rats, Week 4; compounds 100 mg/kg, glibenclamide 10 mg/kg daily; n = 6
MEASURE_NAME: Fasting Blood Glucose Level, Week 4 (mg/dL)

# COMPOUND, TEST_RESULT
data = [
    ("CCC(=O)O[C@H]1CC[C@@]2(C)C(CC[C@]3(C)C2CC=C2C4[C@@H](C)[C@H](C)CC[C@]4(C(=O)O)CC[C@]23C)C1(C)C (some centres unmarked) [Compound 10]", 225.00),
    ("CC(C)C(=O)O[C@H]1CC[C@@]2(C)C(CC[C@]3(C)C2CC=C2C4[C@@H](C)[C@H](C)CC[C@]4(C(=O)O)CC[C@]23C)C1(C)C (some centres unmarked) [Compound 12]", 432.00),
    ("COc1ccc(Cl)cc1C(=O)NCCc1ccc(S(=O)(=O)NC(=O)NC2CCCCC2)cc1 [Glibenclamide, reference compound]", 203.40),
    ("C[C@H]1[C@H](C)CC[C@]2(C(=O)O)CC[C@]3(C)C(=CC[C@@H]4[C@@]5(C)CC[C@H](O)C(C)(C)[C@@H]5CC[C@]43C)[C@H]12 [Compound 1, Ursolic acid]", 396.00),
    ("CCCC(=O)O[C@H]1CC[C@@]2(C)C(CC[C@]3(C)C2CC=C2C4[C@@H](C)[C@H](C)CC[C@]4(C(=O)O)CC[C@]23C)C1(C)C (some centres unmarked) [Compound 11]", 351.00),
]

---

Tested on: STZ-induced diabetic rats
Experiment: Serum biochemical parameters (insulin, total protein, albumin) in STZ-induced diabetic rats
Assay type: in vivo, rat
Settings: 4 weeks, compounds 100 mg/kg, glibenclamide 10 mg/kg

# COMPOUND, ASSAYED_SYSTEM, serum insulin level vs diabetic control
records = [
    ("CCC(=O)O[C@H]1CC[C@@]2(C)C(CC[C@]3(C)C2CC=C2C4[C@@H](C)[C@H](C)CC[C@]4(C(=O)O)CC[C@]23C)C1(C)C (some centres unmarked) [Compound 10]", "STZ-induced diabetic rats", "increased significantly"),
    ("C[C@H]1[C@H](C)CC[C@]2(C(=O)O)CC[C@]3(C)C(=CC[C@@H]4[C@@]5(C)CC[C@H](O)C(C)(C)[C@@H]5CC[C@]43C)[C@H]12 [Compound 1, Ursolic acid]", "STZ-induced diabetic rats", "non-significant effect"),
    ("CC(C)C(=O)O[C@H]1CC[C@@]2(C)C(CC[C@]3(C)C2CC=C2C4[C@@H](C)[C@H](C)CC[C@]4(C(=O)O)CC[C@]23C)C1(C)C (some centres unmarked) [Compound 12]", "STZ-induced diabetic rats", "non-significant effect"),
    ("COc1ccc(Cl)cc1C(=O)NCCc1ccc(S(=O)(=O)NC(=O)NC2CCCCC2)cc1 [Glibenclamide, reference compound]", "STZ-induced diabetic rats", "increased significantly"),
    ("CCCC(=O)O[C@H]1CC[C@@]2(C)C(CC[C@]3(C)C2CC=C2C4[C@@H](C)[C@H](C)CC[C@]4(C(=O)O)CC[C@]23C)C1(C)C (some centres unmarked) [Compound 11]", "STZ-induced diabetic rats", "non-significant effect"),
]
